Every entry's value here was drawn from the RNAGym collection of RNA variant scans (doi:10.1093/nar/gkz1192).

B1: CPEB3 Ribozyme (parent)
chain: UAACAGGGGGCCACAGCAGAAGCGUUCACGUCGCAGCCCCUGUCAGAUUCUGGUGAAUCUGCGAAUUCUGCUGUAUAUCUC

Variants of: B1
Experiment: self-cleavage, relative activity (ratio to wild type); higher = more cleavage; in vitro, sequencing
Field: self-cleavage. Provide a value for each of the variants that follow.
Give bare numbers.

For the 7 variants below, give their self-cleavage values.
1. UAACAGGGGGCCACAGCAGAAGCGUUCACGUCGCAGCCCCUGUCAGAUUCUGAUGAAUCUGCGAAUUCUGCUGUAUGUCUC [G53A A77G]
2. UAACAGGGGGCCACAGCAGAAGCGUUCCCGUCGCAGCCCCUGUCAGAUUCAGGUGAAUCUGCGAAUUCUGCUGUAUAUCUC [A28C U51A]
3. UAACAGGGGGCCACAGCAGAAGCGUUCACGUAGCAGCCCCUGACAGAUUCUGGUGAAUCUGCGAAUUCUGCUGUAUAUCUC [C32A U43A]
4. CAACAGGGGGCCACAGCAGAAGCGUUCACGUCGCAGCCCCUGUCAGAUUCUGGUGAAUCUGCGAAUUCUGCUGUUUAUCUC [U1C A75U]
5. UAACAGAGGGCCACAGCAGAAGCGUUCACAUCGCAGCCCCUGUCAGAUUCUGGUGAAUCUGCGAAUUCUGCUGUAUAUCUC [G7A G30A]
6. UAACAGGGGGCCACAGCAGAAGCGUUUACGUCGCAGUCCCUGUCAGAUUCUGGUGAAUCUGCGAAUUCUGCUGUAUAUCUC [C27U C37U]
7. UAACAGGGGGCCACAGCAGAAGCGUUCACGUCGCAGGCCCUGUCAGAUUCUGGUGAAUCUGCGGAUUCUGCUGUAUAUCUC [C37G A64G]

[1.18, 0.53, 0.5, 1.05, 0.35, 0.2, 0.54]

For the 8 variants below, give their self-cleavage values.
1. UAACAGGGGGCCACUGCAGAAGCGUUCACGUCGCAGCCCCUGUCAGAUUCUGGUGAAUCUGCGAAUUCUGCUGGAUAUCUC [A15U U74G]
2. UAACAGGGGGCCACAGCAGAAGCGUUCACGUCGCAGCCCCUGUCAGCUUCUGGUGAAUCUGCGAAUUCUGCAGUAUAUCUC [A47C U72A]
3. UAACAGGGGGCCCCAGCAGAAGCGUUCACGUCGCAGCUCCUGUCAGAUUCUGGUGAAUCUGCGAAUUCUGCUGUAUAUCUC [A13C C38U]
4. UUACAGGGGGCCACAGCAGGAGCGUUCACGUCGCAGCCCCUGUCAGAUUCUGGUGAAUCUGCGAAUUCUGCUGUAUAUCUC [A2U A20G]
5. UAACAGGGGGCCACAGCAGGAGCGUUCACGUCGCAGUCCCUGUCAGAUUCUGGUGAAUCUGCGAAUUCUGCUGUAUAUCUC [A20G C37U]
6. UAACAGGGGGCCACAGCGGAAGCGUUCACGUCGCAGCCCCUGUCAGAUUCUGGUGAUUCUGCGAAUUCUGCUGUAUAUCUC [A18G A57U]
7. UAACAGGGGGCCACUGCAGAAGCGUUCACGUCGCAGCCCCUGUCAGAUUCUGGUGAAUCUGCGAAUUCGGCUGUAUAUCUC [A15U U69G]
8. UAACAGGGGGCCACAGCAGAAGCGUUCACGUCGCAGCCCCUGCCAGAUUCUGGUGAAUCUGCGAAUUCUGCUGAAUAUCUC [U43C U74A]

0.97
0.26
0.93
0.69
0.62
0.36
0.34
0.85
